All values here come from PubChem BioAssay AID623901.

Here the recorded activation is given for each entry.
assay: miR-122 suppressors via Renilla sensor increase, primary screen, cell-based, Huh7 psiCHECK-miR122, Renilla luciferase, single point (AID 623901); settings: 48 h, at 12.5 µM, stronger effect = higher value;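 further: 0% = median of neutral control wells and 100% = median of positive control wells; higher luciferase signal means stronger suppression of miR-122 activity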
The whole screen tested about 340,000 compounds, of which about 470 (0.14%) were called active. This excerpt belongs to a sample that is enriched for actives.
Value kind: activation

- Item smiles: "O=C(NC(Nc1nc2ccc([N+](=O)[O-])cc2s1)(C(F)(F)F)C(F)(F)F)c1ccccc1"
  Value kind: "activation"
  Reported measurement: "45.7% (active)"
- Item smiles: "CNC[C@@H]1Oc2cc(-c3ccccc3OC)ccc2S(=O)(=O)N([C@H](C)CO)C[C@H]1C"
  Value kind: "activation"
  Reported measurement: "-5.6% (inactive)"
- Item smiles: "Cn1c(NC(=O)c2ccco2)c(-c2ccccc2Cl)c(=O)c2ccccc21"
  Value kind: "activation"
  Reported measurement: "66.3% (active)"
- Item smiles: "C[C@H]1CN([C@@H](C)CO)C(=O)c2cc(C#CC3(O)CCCC3)cnc2O[C@@H]1CN(C)C(=O)Cc1ccccc1"
  Value kind: "activation"
  Reported measurement: "0.596% (inactive)"

----------
Here the recorded activation is given for each entry.
experiment: miR-122 suppressors via Renilla sensor increase, primary screen, cell-based, Huh7 psiCHECK-miR122, Renilla luciferase, single point (AID 623901); settings: 48 h, at 12.5 µM, stronger effect = higher value;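 further: 0% = median of neutral control wells and 100% = median of positive control wells; higher luciferase signal means stronger suppression of miR-122 activity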
The campaign covered roughly 340,000 compounds. About 470 (0.14%) were called active. The full list was thinned out, with actives kept by preference.
Value kind: activation (%)

- Item smiles: "CCC(=O)N(C)C[C@@H]1Oc2ncc(C#C[C@H](C)O)cc2C(=O)N([C@@H](C)CO)C[C@@H]1C"
  Reported measurement: -1.06
- Item smiles: "COCCn1c(SCC(=O)c2[nH]c(C)c(C(C)=O)c2C)nc2ccccc2c1=O"
  Reported measurement: -272
- Item smiles: "COc1ccccc1CNc1nc(Nc2ccccc2Cl)c2sccc2n1"
  Reported measurement: 44.5
- Item smiles: "C[C@@H]1CN([C@@H](C)CO)C(=O)c2cc(C3=CCCCC3)cnc2O[C@H]1CN(C)CC1CCOCC1"
  Reported measurement: -37.5
- Item smiles: "COCC#Cc1cnc2c(c1)C(=O)N([C@@H](C)CO)C[C@@H](C)[C@@H](CN(C)C(=O)Nc1ccccc1OC)O2"
  Reported measurement: 1.08
- Item smiles: "COCC(=O)N(C)C[C@H]1Oc2cc(Br)ccc2S(=O)(=O)N([C@H](C)CO)C[C@H]1C"
  Reported measurement: -1.48
- Item smiles: "Cc1ccccc1-c1cnc2c(c1)C(=O)N([C@H](C)CO)C[C@H](C)[C@@H](CN(C)C(=O)c1ccccc1)O2"
  Reported measurement: 2.61
- Item smiles: "CCOc1ccccc1NC(=O)Cn1nnc(C(=O)NCc2cccs2)c1N"
  Reported measurement: -94.8
- Item smiles: "C[C@H]1CN([C@@H](C)CO)C(=O)c2cc(-c3ccccc3F)cnc2O[C@@H]1CN(C)C(=O)C1CCCCC1"
  Reported measurement: 4.49
- Item smiles: "C[C@@H]1CN([C@H](C)CO)C(=O)c2cc(-c3ccccc3F)cnc2O[C@H]1CN(C)C(=O)NC1CCCCC1"
  Reported measurement: -3.04
- Item smiles: "CO[C@H]1CN(C)C(=O)c2ccc(NC(=O)C3CCC3)cc2OC[C@@H](C)NC[C@H]1C"
  Reported measurement: 2.77
- Item smiles: "COc1cccc(-c2ccc3c(c2)O[C@H](CN(C)C(=O)C2CCOCC2)[C@H](C)CN([C@H](C)CO)S3(=O)=O)c1"
  Reported measurement: 40.8
- Item smiles: "COCC#Cc1cnc2c(c1)C(=O)N([C@@H](C)CO)C[C@@H](C)[C@H](CN(C)C(=O)Nc1ccccc1OC)O2"
  Reported measurement: -17.8
- Item smiles: "C[C@@H]1CN([C@@H](C)CO)C(=O)c2cc(C#Cc3ccccc3)cnc2O[C@H]1CN(C)C(=O)c1ccccn1"
  Reported measurement: 5.71
- Item smiles: "N=c1c2c(-c3ccccc3)c(-c3ccccc3)n(Cc3ccccc3)c2ncn1CCCO"
  Reported measurement: 42.7
- Item smiles: "C[C@H](O)C#Cc1ccc2c(c1)O[C@H](CN(C)Cc1cccnc1)[C@@H](C)CN([C@H](C)CO)S2(=O)=O"
  Reported measurement: -6.12
- Item smiles: "C[C@H](CO)N1C[C@H](C)[C@@H](CN(C)S(=O)(=O)c2ccccc2)Oc2ncc(C#Cc3ccccc3F)cc2C1=O"
  Reported measurement: 1.81

----------
experiment: miR-122 suppressors via Renilla sensor increase, primary screen, cell-based, Huh7 psiCHECK-miR122, Renilla luciferase, single point (AID 623901); settings: 48 h, at 12.5 µM;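 further: 0% = median of neutral control wells and 100% = median of positive control wells; higher luciferase signal means stronger suppression of miR-122 activity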
Out of some 340,000 compounds screened, about 470 (0.14%) were called active.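 How the source made its calls: active means mean activation of 30% or more, with every replicate also reaching 30%; inconclusive means mean activation of 30% or more but some replicate falls short; inactive means the rest.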 This excerpt belongs to a sample that is enriched for actives.
Labels: T = active, F = inactive

- Compound: "COc1ccc(CN(C)C[C@@H]2Oc3ccc(NS(=O)(=O)c4ccc(OC)cc4)cc3C(=O)N([C@H](C)CO)C[C@H]2C)cc1"
  Class name: "F"
- Compound: "OCC(O)C1OCOC(C(O)CO)C1O (stereo not drawn)"
  Class name: "F"
- Compound: "C[C@@H]1CN([C@@H](C)CO)S(=O)(=O)c2ccc(-c3ccc(C(=O)N(C)C)cc3)cc2O[C@@H]1CN(C)C(=O)Cc1ccccn1"
  Class name: "F"
- Compound: "CCC(=O)N1C[C@H](C)[C@H](OC)CN(C)C(=O)c2ccc(NS(C)(=O)=O)cc2OC[C@H]1C"
  Class name: "F"
- Compound: "COCC#Cc1cnc2c(c1)C(=O)N([C@@H](C)CO)C[C@@H](C)[C@@H](CN(C)S(=O)(=O)c1cccc(OC)c1)O2"
  Class name: "F"
- Compound: "CCOc1ccccc1N1CCN(C(=O)c2ccc3[nH]c(C)c(C)c3c2)CC1"
  Class name: "F"
- Compound: "COCC(=O)N(C)C[C@@H]1Oc2ncc(C#Cc3ccccc3OC)cc2C(=O)N([C@@H](C)CO)C[C@H]1C"
  Class name: "F"
- Compound: "C[C@@H]1CN([C@H](C)CO)C(=O)c2cc(C#CCN(C)C)cnc2O[C@H]1CN(C)C(=O)Cc1ccncc1"
  Class name: "F"
- Compound: "Cc1cccc(-n2ncc(Cl)c(Cl)c2=O)c1"
  Class name: "T"
- Compound: "COc1ccc(OCCCC(=O)NCCc2ccccc2)cc1"
  Class name: "F"
- Compound: "C[C@@H]1CN([C@H](C)CO)C(=O)c2cc(C#Cc3ccccn3)cnc2O[C@H]1CN(C)CC1CCOCC1"
  Class name: "F"
- Compound: "COc1ccc(NC(=O)Nc2ccc3c(c2)OC[C@@H](C)NC[C@@H](C)[C@H](OC)CN(C)C3=O)cc1"
  Class name: "F"
- Compound: "CCC(=O)N(C)C[C@@H]1Oc2cc(C#C[C@H](C)O)ccc2S(=O)(=O)N([C@H](C)CO)C[C@@H]1C"
  Class name: "F"
- Compound: "C[C@H](CO)N1C[C@H](C)[C@@H](CN(C)Cc2ccncc2)Oc2ncc(C#CC3CC3)cc2C1=O"
  Class name: "F"
- Compound: "Cc1ccc(S(=O)(=O)Nc2ccc3ncccc3c2)cc1"
  Class name: "F"
- Compound: "C[C@@H]1CN([C@@H](C)CO)C(=O)c2cc(-c3cncnc3)cnc2O[C@H]1CN(C)Cc1cncnc1"
  Class name: "F"
- Compound: "O=C(CCc1ccc(S(=O)(=O)NC2CCCCC2)cc1)NCc1ccccc1"
  Class name: "F"
- Compound: "COCC(=O)Nc1ccc2c(c1)OC[C@H](C)NC[C@@H](C)[C@H](OC)CN(C)C2=O"
  Class name: "F"

----------
experiment: miR-122 suppressors via Renilla sensor increase, primary screen, cell-based, Huh7 psiCHECK-miR122, Renilla luciferase, single point (AID 623901); conditions: 48 h, at 12.5 µM, stronger effect = higher value;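 further: 0% = median of neutral control wells and 100% = median of positive control wells; higher luciferase signal means stronger suppression of miR-122 activity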
Hit rate of the full screen: of about 340,000 compounds, about 470 (0.14%) were called active. The list comes from a sample in which actives are over-represented; it also holds close analogues and randomly drawn compounds.
Here the recorded activation is given for each entry.

- Item smiles: "CC(C)C#Cc1ccc2c(c1)O[C@H](CN(C)Cc1ccccn1)[C@H](C)CN([C@H](C)CO)S2(=O)=O"
  Unit abbrev: "%"
  activation: -14.1
- Item smiles: "COc1ccc(C)cc1S(=O)(=O)Nc1cc2c3c(c1)CCC(=O)N3CCC2"
  Unit abbrev: "%"
  activation: -150
- Item smiles: "Cn1cnc(CCNC(=O)C[C@@H]2CC[C@@H]3[C@H](COC[C@@H](O)CN3C(=O)Nc3ccccc3)O2)c1"
  Unit abbrev: "%"
  activation: 4.36
- Item smiles: "CCCC(=O)Nc1ccc2c(c1)C(=O)N(C)[C@H]1CC[C@@H](CC(=O)NCc3cccc(F)c3)O[C@H]1CO2"
  Unit abbrev: "%"
  activation: -120
